We begin with a simple list: items and their reported phosphorylation enrichment.
EXPERIMENTAL_TARGET: EPHB2 (UniProt P29323)
Sequence (P29323 whole entry, looked up): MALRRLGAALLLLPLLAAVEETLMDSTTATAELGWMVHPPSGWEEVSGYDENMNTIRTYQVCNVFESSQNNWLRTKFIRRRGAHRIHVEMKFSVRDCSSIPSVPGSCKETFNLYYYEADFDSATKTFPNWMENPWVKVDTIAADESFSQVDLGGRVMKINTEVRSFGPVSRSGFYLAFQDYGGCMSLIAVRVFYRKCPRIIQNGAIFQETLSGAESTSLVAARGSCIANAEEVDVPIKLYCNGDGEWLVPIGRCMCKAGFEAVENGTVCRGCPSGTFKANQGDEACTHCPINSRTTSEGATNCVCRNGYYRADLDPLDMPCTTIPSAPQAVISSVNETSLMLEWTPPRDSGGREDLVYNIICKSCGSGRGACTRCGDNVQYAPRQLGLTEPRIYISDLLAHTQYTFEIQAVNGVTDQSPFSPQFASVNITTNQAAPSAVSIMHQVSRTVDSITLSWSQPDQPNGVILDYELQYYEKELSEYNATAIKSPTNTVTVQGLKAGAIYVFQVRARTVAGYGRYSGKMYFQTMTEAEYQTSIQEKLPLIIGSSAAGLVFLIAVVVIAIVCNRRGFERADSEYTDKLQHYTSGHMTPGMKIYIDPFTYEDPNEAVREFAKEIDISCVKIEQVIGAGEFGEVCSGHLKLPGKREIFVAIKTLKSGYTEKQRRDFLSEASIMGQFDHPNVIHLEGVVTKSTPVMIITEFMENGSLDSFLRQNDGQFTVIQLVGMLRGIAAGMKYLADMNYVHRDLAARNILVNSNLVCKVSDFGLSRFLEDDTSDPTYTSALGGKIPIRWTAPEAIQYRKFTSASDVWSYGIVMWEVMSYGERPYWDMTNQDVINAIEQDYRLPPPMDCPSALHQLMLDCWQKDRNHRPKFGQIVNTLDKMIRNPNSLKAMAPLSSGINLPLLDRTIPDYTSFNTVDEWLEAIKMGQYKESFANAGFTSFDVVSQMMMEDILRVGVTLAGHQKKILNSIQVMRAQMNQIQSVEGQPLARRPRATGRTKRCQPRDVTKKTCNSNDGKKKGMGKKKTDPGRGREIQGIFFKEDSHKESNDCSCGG
ASSAY_COMMENT: phosphorylation enrichment, bacterial display (enrichment ratio); higher = better substrate or ligand; peptides without Tyr show the background;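 note: 11-residue human phosphosite peptides and single-mutation variants displayed on the E. coli surface, counted by deep sequencing, each peptide's frequency after selection divided by its frequency in the unselected input library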;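 note: frequency after pTyr selection over input frequency; kinase dosed for 20-30% of maximal phosphorylation in three min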
READOUT_TYPE: phosphorylation enrichment

query_sequence="TLLERYGMTKI [ACSF3_Y355_E359K]" result_value=0.594
query_sequence="ILGRFYETGSI [PAX2_Y73_YF]" result_value=0.515
query_sequence="SVNCTYSPALN [TP53_Y126_T123N]" result_value=0.613
query_sequence="ISIFRYAKGQP [MPZ_Y82_H81R]" result_value=0.577
query_sequence="SRGSSYNSIPK [FLNC_Y2625_S2626N]" result_value=0.356
query_sequence="LKLIQYHLTQQ [AKAP4_Y554]" result_value=0.774
query_sequence="RHFTGCRIELQ [INSR_Y818_Y818C]" result_value=0.778

----------
Test system: Fer (mouse)
ASSAY_COMMENT: phosphorylation enrichment, bacterial display (enrichment ratio); higher = better substrate or ligand; peptides without Tyr show the background
Use 0.5 as the dividing line for phosphorylation enrichment, with the line itself on the Y side and lower values as N.

query_sequence="TSNQEYLDLSM [FGFR1_Y766]" experimental_target="Fer (mouse)" qualitative_label=N
query_sequence="CPFNLYAEQLS [HGD_Y40_YF]" experimental_target="Fer (mouse)" qualitative_label=Y
query_sequence="QEIATYPRLLE [KRT14_Y415_R416P]" experimental_target="Fer (mouse)" qualitative_label=Y
query_sequence="ELTTCYRKKCS [CCBE1_Y70_C75S]" experimental_target="Fer (mouse)" qualitative_label=N
query_sequence="SIRYNYLLDVL [FGFR4_Y237]" experimental_target="Fer (mouse)" qualitative_label=N
query_sequence="FRVDCYKNFVA [FHL1_Y213_C209R_YF]" experimental_target="Fer (mouse)" qualitative_label=Y
query_sequence="MASISYDYCRV [BST2_Y6_T4I]" experimental_target="Fer (mouse)" qualitative_label=Y

----------
Tested on: c-Abl (mouse)
ASSAY_COMMENT: phosphorylation enrichment, bacterial display (enrichment ratio); higher = better substrate or ligand; peptides without Tyr show the background
Reported values of phosphorylation enrichment for individual entries
READOUT_TYPE: phosphorylation enrichment

query_sequence="WIPNQYPIISE [NOG_Y222_I220N]" result_value=0.747
query_sequence="TVLGEYALPKG [CYP24A1_Y407]" result_value=6.83
query_sequence="KTTSGYAGGLS [KRT8_Y419]" result_value=0.456
query_sequence="VLTSKHRGGGG [HBA1_Y141_Y141H]" result_value=0.418
query_sequence="TFQFKYPEGSS [TGM4_Y440_E437Q_YF]" result_value=0.564
query_sequence="DCPASYKKKSM [PDGFRA_Y768_R764C]" result_value=0.337
query_sequence="HLEKKYVHRDS [CSF1R_Y708_R710H]" result_value=0.276
query_sequence="AHAGGYGAEAL [HBA1_Y25_E24G]" result_value=0.599
query_sequence="VVKTVYSLQPS [KNSTRN_Y87_P92S]" result_value=0.716
query_sequence="STEPQYQPGEN [SRC_Y530]" result_value=0.564
query_sequence="IHTEFYDGLFP [BCR_Y561_K558T]" result_value=0.902
query_sequence="GAVDTYCRHNY [HLA-DRB1_Y107_A102G]" result_value=0.755
query_sequence="GGSSPYSRRLP [CDK13_Y351]" result_value=0.504
query_sequence="IGEGTYGVLFK [CDK2_Y15_V18L_YF]" result_value=0.708
query_sequence="ISIFRYAKGQP [MPZ_Y82_H81R]" result_value=0.574
query_sequence="DEGVNHFMSKG [FBXO8_Y156_Y156H]" result_value=0.516
query_sequence="IGNGYYFHVFS [MYBPC3_Y1136_R1138H]" result_value=0.919
query_sequence="EPSLDYMVTKI [CPS1_Y768]" result_value=0.606
query_sequence="RTVPLYESLRK [DDB1_Y718_P721L]" result_value=1.07
query_sequence="RKRQFYLFKGK [RSPO4_Y112_C107R_YF]" result_value=1.25
query_sequence="ATHSRYRLNDY [CLDN14_Y233_G232R]" result_value=0.476
query_sequence="GLALRCLSDHS [VWF_Y1584_Y1584C]" result_value=0.718
query_sequence="RQLEIYRASRP [ERCC4_Y594]" result_value=0.727
query_sequence="QQLQGYIPSNY [FRK_Y99]" result_value=0.47
query_sequence="EFHRLYEEFTR [PIK3R1_Y467_D464H_YF]" result_value=0.709
query_sequence="PEEKVYLSRGD [CRACR2A_Y141_H136P]" result_value=1.35
query_sequence="FVFSFYHAFSG [ACTN4_Y265_S262F_YF]" result_value=0.994
query_sequence="SEKVVYRRFTE [NCF1_Y41]" result_value=0.527
query_sequence="STSKTYVISQT [RBBP6_Y87_R91Q]" result_value=0.615
query_sequence="DAKTIYDFTDT [PDK1_Y136_A134T]" result_value=0.724
query_sequence="WDLTDYLMKIL [ACTB_Y188_R183W]" result_value=0.894
query_sequence="RSDSSYRMSAT [NHS_Y1532]" result_value=0.679
query_sequence="NLNGKCNKPRA [ANGPTL3_Y417_Y417C]" result_value=0.388
query_sequence="GEFHVYRHLRR [PRKRIP1_Y82]" result_value=0.601
query_sequence="AALSAYAPQRP [PTPRN2_Y249_A251P]" result_value=0.791
query_sequence="FLTQHHDAKPQ [ANG_Y38_Y38H]" result_value=0.552
query_sequence=GFITSYREEEQ result_value=0.769
query_sequence="SSVKPYRVYCD [FGB_Y266]" result_value=0.52
query_sequence="KLASTYREAAT [DEAF1_Y483_H479L]" result_value=0.432
query_sequence="DPLASYLDKVR [KRT10_Y160_R156P]" result_value=0.392
query_sequence="SVNCTYSPALN [TP53_Y126_T123N]" result_value=0.622
query_sequence="SSSGAYGGGYG [KRT19_Y61]" result_value=0.386
query_sequence="ATARPYRPFII [LRP5_Y1528_YF]" result_value=1.05
query_sequence="QRALLYEDTLF [UNC13D_Y56_A59T_YF]" result_value=1.13
query_sequence="EKKKFYDAKIE [CASP5_Y104_T106A_YF]" result_value=0.718
query_sequence="NKKFHYRELPV [ERN2_Y860_H858Y_YF]" result_value=0.407
query_sequence="APSHAYHGGVL [ANO1_Y981]" result_value=0.505
query_sequence="QTPVLYAMLFH [MPZ_Y220_D224Y_YF]" result_value=1.61
query_sequence="ALRASYTPSPV [ESS2_Y418_A423V]" result_value=0.945
query_sequence="KQELVYTNKKL [OPTN_Y356]" result_value=0.759
query_sequence="PTQLPYDHKWE [KIT_Y578]" result_value=0.655
query_sequence="VIKSSYQVAKA [CPT1B_Y534_E531K]" result_value=0.489
query_sequence="LTTPTYGDLNH [TUBB_Y222]" result_value=0.702
query_sequence="FEPWVYSLSFE [PRKDC_Y647_F649L_YF]" result_value=0.672
query_sequence="CTTIRYNYMCN [TP53_Y234_H233R]" result_value=0.491
query_sequence="GRRNTCYASIA [ACADM_Y352_Y352C]" result_value=0.5
query_sequence="LNCDRYSAGLL [PDE6A_Y275_V277A]" result_value=0.673

----------
EXPERIMENTAL_TARGET: EPHB2 (UniProt P29323)
ASSAY_COMMENT: phosphorylation enrichment, bacterial display (enrichment ratio); higher = better substrate or ligand; peptides without Tyr show the background
// FALSE strictly below 0.5 in phosphorylation enrichment; TRUE otherwise

query_sequence="FLTQHHDAKPQ [ANG_Y38_Y38H]" experimental_target="EPHB2 (UniProt P29323)" qualitative_label=FALSE
query_sequence="KLASTYREAAT [DEAF1_Y483_H479L]" experimental_target="EPHB2 (UniProt P29323)" qualitative_label=FALSE
query_sequence="SYCYRYRCAAQ [SUMF1_Y344_R349Q]" experimental_target="EPHB2 (UniProt P29323)" qualitative_label=FALSE
query_sequence="KMKGEYFRFLA [YWHAG_Y130_D129E_YF]" experimental_target="EPHB2 (UniProt P29323)" qualitative_label=TRUE
query_sequence="ADEDIYGVLPA [LYNtide_2014]" experimental_target="EPHB2 (UniProt P29323)" qualitative_label=TRUE
query_sequence="TEQDPYNNIDR [MMUT_Y364_V368D]" experimental_target="EPHB2 (UniProt P29323)" qualitative_label=TRUE
query_sequence="ARSHIYTLASC [MEFV_Y741_F743L]" experimental_target="EPHB2 (UniProt P29323)" qualitative_label=TRUE
query_sequence="LGRTVYADCLA [ABCA4_Y2063_L2060R]" experimental_target="EPHB2 (UniProt P29323)" qualitative_label=TRUE
query_sequence="VGTKRYVAPEV [ACVRL1_Y375_M376V]" experimental_target="EPHB2 (UniProt P29323)" qualitative_label=FALSE
query_sequence="GLALRCLSDHS [VWF_Y1584_Y1584C]" experimental_target="EPHB2 (UniProt P29323)" qualitative_label=TRUE
query_sequence="ETVHRYVELLD [AP1S3_Y87_I83T]" experimental_target="EPHB2 (UniProt P29323)" qualitative_label=TRUE
query_sequence="WAMPAYNRSKL [WWOX_Y293_L291P]" experimental_target="EPHB2 (UniProt P29323)" qualitative_label=FALSE
